Property: IC50; scope: individual molecules
- measured_on: active p38 alpha enzyme (Upstate Biotechnology) (Homo sapiens, UniProt Q16539)
- Construct: purchased Upstate Biotechnology
- Sequence (Q16539 whole entry): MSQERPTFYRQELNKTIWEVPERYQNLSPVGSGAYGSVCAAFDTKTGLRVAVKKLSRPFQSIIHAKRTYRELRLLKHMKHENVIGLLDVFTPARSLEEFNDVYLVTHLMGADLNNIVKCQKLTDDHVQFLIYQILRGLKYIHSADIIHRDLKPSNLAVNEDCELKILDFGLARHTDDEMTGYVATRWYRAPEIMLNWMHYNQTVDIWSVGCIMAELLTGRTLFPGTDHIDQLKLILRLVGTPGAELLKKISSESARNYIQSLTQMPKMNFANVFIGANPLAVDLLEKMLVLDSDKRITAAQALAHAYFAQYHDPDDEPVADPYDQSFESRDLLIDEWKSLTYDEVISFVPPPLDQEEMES
- assay_procedure: p38α biochemical assay (ATP turnover, luminescent detection, Cambrex PKlight)
- condition_set: p38α kinase; Table 1 Biological Activity

Example entries and their recorded answers appear below.
Fill in IC50 for record CC(C)NC(=O)c1csc(-c2c(-c3ccc(F)cc3)n[nH]c2C2CCN(C(=O)c3csc4ccccc34)CC2)n1 > 1 µM

Answer with reported IC50 of CC(C)NC(=O)c1csc(-c2c(-c3ccc(F)cc3)noc2CNC2CONC2=O)n1 (stereo not shown) > 1 µM

Quick one: give measured IC50 for Cc1nc(-c2ccc(F)cc2)c(-c2nc(C(=O)N(C)CC(O)c3ccccc3)cs2)s1 (stereo not shown) > 1 µM

Find the measured IC50 of Cc1nc(-c2ccc(F)cc2)c(-c2nc(C(=O)Nc3ccc4c(c3)OCCO4)cs2)s1 and report it. ≤ 1 µM

Supply IC50 value. Item: CC(C)NC(=O)c1csc(-c2oc(CN3CCC(N(C)C)C3)nc2-c2ccc(F)cc2)n1 (stereo not shown) > 1 µM

Now, please, on to the next molecule.
Provide one value: measured IC50 of CCOc1ccccc1CNC(=O)c1csc(-c2sc(C)nc2-c2ccc(F)cc2)n1 ≤ 1 µM

---

- measured_on: active p38 alpha enzyme (Upstate Biotechnology) (Homo sapiens)
- Construct: purchased Upstate Biotechnology
- assay_procedure: p38α biochemical assay (ATP turnover, luminescent detection, Cambrex PKlight)
- condition_set: p38α biochemical assay, Table 1 Biological Activity
IC50 reference

Examples from the recorded data:
Complete the entry with IC50 for CC(C)NC(=O)c1csc(-c2oc(CNC(=O)c3cc(O)ccc3O)nc2-c2ccc(F)cc2)n1 [Example 146] ≤ 1000 nM

Please report the measured IC50 for Cc1cccc(C(=O)N2CCN(Cc3nc(-c4ccc(F)cc4)c(-c4nc(C(=O)NC(C)C)cs4)o3)CC2)c1 [Example 358] > 1000 nM

Kindly indicate its recorded IC50. Item: CC(C)NC(=O)c1csc(-c2c(-c3ccc(F)cc3)noc2CNC(=O)c2ccc3cccc(O)c3n2)n1 [Example 721] > 1000 nM

State, in one line, measured IC50 of CC(C)NC(=O)c1csc(-c2c(-c3ccc(F)cc3)noc2CNC(=O)c2ccc(Oc3cccc(O)c3)cc2)n1 [Example 787] > 1000 nM

Given Cc1ccc(C(=O)NCc2nc(-c3ccc(F)cc3)c(-c3nc(C(=O)NC(C)C)cs3)o2)c(C)c1 [Example 134] , respond with its IC50. > 1000 nM

Retrieve IC50 measured for COc1ccc(C(=O)N2CCN(Cc3nc(-c4ccc(F)cc4)c(-c4nc(C(=O)NC(C)C)cs4)o3)CC2)cc1O [Example 426] and print it. ≤ 1000 nM

New cases:
Return reported IC50. Input molecule: CCC(=O)C(=O)N1CCN(Cc2nc(-c3ccc(F)cc3)c(-c3nc(C(=O)NC(C)C)cs3)o2)CC1 [Example 339] > 1000 nM

Report IC50, nothing else, for this molecule: Cc1cc(Cl)ccc1-c1noc(C)c1-c1ccn(C(=O)NC(C)C)n1 [Example 24] > 1000 nM

# return recorded IC50 for input CC(C)NC(=O)c1csc(-c2oc(CNC(=O)CCc3ccccc3O)nc2-c2ccc(F)cc2)n1 [Example 181] ≤ 1000 nM
